target: furin, P09958; experiment: furin cleavage Z-score vs untreated control; higher = more cleavage, active = 3.5 or more, inactive = 1 or less, 8 variable residues between constant flanks; conditions: 30 min;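 further: purified furin at 1:10 enzyme:substrate in 50 mM HEPES pH 7.5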
Sequence (P09958 whole entry): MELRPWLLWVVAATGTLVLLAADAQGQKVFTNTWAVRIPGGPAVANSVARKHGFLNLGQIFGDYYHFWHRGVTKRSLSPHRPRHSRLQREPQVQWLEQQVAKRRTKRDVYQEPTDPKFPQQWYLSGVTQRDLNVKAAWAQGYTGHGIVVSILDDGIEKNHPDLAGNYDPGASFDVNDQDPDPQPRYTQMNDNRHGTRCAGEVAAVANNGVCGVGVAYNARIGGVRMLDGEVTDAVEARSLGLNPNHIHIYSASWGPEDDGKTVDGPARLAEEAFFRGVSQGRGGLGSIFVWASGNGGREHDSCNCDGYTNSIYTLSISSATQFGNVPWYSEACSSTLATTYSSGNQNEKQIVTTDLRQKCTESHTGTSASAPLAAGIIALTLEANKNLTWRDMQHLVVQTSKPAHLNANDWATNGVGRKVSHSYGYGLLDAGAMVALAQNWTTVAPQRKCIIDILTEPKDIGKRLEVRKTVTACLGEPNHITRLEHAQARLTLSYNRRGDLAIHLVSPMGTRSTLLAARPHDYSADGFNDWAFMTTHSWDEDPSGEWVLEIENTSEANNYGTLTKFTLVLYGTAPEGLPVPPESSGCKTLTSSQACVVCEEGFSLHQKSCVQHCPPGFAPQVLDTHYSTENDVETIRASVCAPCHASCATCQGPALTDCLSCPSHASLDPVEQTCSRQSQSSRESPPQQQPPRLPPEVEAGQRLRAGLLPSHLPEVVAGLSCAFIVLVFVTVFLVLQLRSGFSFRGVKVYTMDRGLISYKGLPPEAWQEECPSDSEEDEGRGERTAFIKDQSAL
The list shows a part of the results. How many sequences the whole screen found active is unknown.
Allowed answers: label 1 for active, label 0 for inactive

• CAEVFTSTWVAGNASASA [HC2187] = label 0

Lookup: Called result for CAIPDREVLYAGNASASA [HC1008]
Found: label 0

Lookup: Call for entry CAGCNCSIYPAGNASASA [HC312] :
Found: label 0

Lookup: What did the test return for CAVVCCYMSYAGNASASA [HC117] ?
Found: label 0

Lookup: Identify the outcome logged in this assay for the sequence shown: CARNKRSHSGAGNASASA [FS-1758]
Found: label 1

Lookup: Could you check what this test reported for CAELVVCCSMAGNASASA [HC2125] ?
Found: label 0
